# assayed-system: Retinaldehyde dehydrogenase 3 (Homo sapiens) (UniProt P47895)
# measurement-notes: qHTS for Inhibitors of the Aldehyde Dehydrogenase Family (ALDH1A3) Primary screen (AID 2061315);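 also: plate controls were DMSO vehicle for no effect and reference inhibitor for full effect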
# cond: ALDH inhibition qHTS; series mostly up to 56 µM
Inconclusive results are not listed. Calls of active or inactive are those of the source. Calls follow the shape of the dose curve; as a rule, active = well fitted inhibition curve with a large enough effect; inconclusive = small, poorly fitted or top-dose-only effect; inactive = no such curve, though single readings can be large or run the other way.
quantity-measured: activity change, negative = inhibition

>>> result("COc1cccc(C(=O)NCCNc2nc3cc(C)cc(C)c3cc2C#N)c1")
"inactive"
>>> result("C[C@@H]1O[C@@H](O[C@H]2[C@H](OC(=O)[C@]34CCC(C)(C)C[C@H]3C3=CCC5[C@@]6(C)C[C@H](O)[C@H](O[C@@H]7O[C@H](CO)[C@@H](O)[C@H](O)[C@H]7O)[C@@](C)(CO)C6[C@H](O)C[C@@]5(C)[C@]3(C)CC4)OC[C@H](O)[C@@H]2O)[C@H](O)[C@H](O)[C@H]1O[C@@H]1OC[C@@H](O)[C@H](O[C@@H]2OC[C@](O)(CO)[C@H]2O)[C@H]1O (stereo partly specified)")
"7.08% [at 11.2 µM] (inactive)"
>>> result("C/C(=C\\CO)CC/C=C(\\C)C(=O)O[C@@H]1O[C@H](CO)[C@@H](O)[C@H](O)[C@H]1O")
"inactive"
>>> result("C[C@H]1CC(=O)Nc2cccc(-c3cnn(C(C)(C)C)c3)c2N1")
"inactive"
>>> result("CN1CCN(c2nc(-c3ccc(C(=O)NC4(C(=O)NCC#N)CCCCC4)cc3)cs2)CC1")
"inactive"

Turning to the following compound.
QUERY: API: value(readout=activity change, negative = inhibition, system=Retinaldehyde dehydrogenase 3 (Homo sapiens) (UniProt P47895)) for record COC(=O)CCc1ccc(OCC(O)CNC(C)C)cc1 (stereo unspecified)
RESULT: inactive

---

# assayed-system: Cellular tumor antigen p53 (Homo sapiens)
# measurement-notes: Primary qHTS for small molecule compounds that upregulate eGFP-tagged delta133p53alpha (in C-terminal) cells. (AID 2060324)
# cond: NCI-H358 delta133p53alpha-eGFP (C-terminal tag), GFP fluorescence imaging, 24 h; series mostly up to 57.5 µM
Records with an inconclusive call do not appear. The source made the active and inactive calls. Calls follow the shape of the dose curve; as a rule, active = well fitted activation curve with a large enough effect; inconclusive = small, poorly fitted or top-dose-only effect; inactive = flat fitted curve, though single readings scatter.
Tick one outcome: class 1 for active, class 0 for inactive

Some solved entries appear below for comparison.
>>> discrete_label("Clc1ccc(Cn2c(CN3CCCC3)nc3ccccc32)cc1")
"class 0"
>>> discrete_label("NC(=O)C1=CN(C2OC(COP(=O)(O)OP(=O)(O)OC[C@H]3O[C@@H](n4cnc5c(N)ncnc54)[C@H](OP(=O)(O)O)[C@@H]3O)C(O)C2O)C=CC1 (some centres not stated)")
"class 0"
>>> discrete_label("NC(=O)OCC(COC(N)=O)c1ccccc1")
"class 0"
>>> discrete_label("O=S(=O)(c1cccc2c(Cl)cccc12)N1CCCNCC1")
"class 0"
>>> discrete_label("Cn1c(=O)c2[nH]c(-c3ccccc3)nc2n(C)c1=O")
"class 0"
>>> discrete_label("Cc1[nH]c(=O)c(C#N)cc1-c1ccncc1")
"class 0"
>>> discrete_label("CCCCC1C(=O)N(c2ccccc2)N(c2ccccc2)C1=O")
"class 0"
>>> discrete_label("CCN(CC)CCCCNc1ncc2cc(-c3c(Cl)cccc3Cl)c(NC(=O)NC(C)(C)C)nc2n1")
"class 0"
>>> discrete_label("CN(C)C(=O)/N=N/C(=O)N(C)C")
"class 0"
>>> discrete_label("Nn1nnc2ccccc21")
"class 0"

QUERY: GET /call?item= OC[C@H]1O[C@@H](n2cnc3c(NC4CCCCC4)ncnc32)[C@H](O)[C@@H]1O returns the recorded outcome of this test.
RESULT: class 0

QUERY: Answer briefly: the call reported for CC(C)Cc1ccc([C@H](C)C(=O)O)cc1 in this assay.
RESULT: class 0

QUERY: I would be grateful if you could indicate the recorded call for Cn1cc(C2=C(c3ccc(Cl)cc3Cl)C(=O)NC2=O)c2ccccc21 .
RESULT: class 1

QUERY: Called result for CCN(c1nc(N)c(C(=O)N=C(N)N)nc1Cl)C(C)C
RESULT: class 0

QUERY: Fill in: this test's call for O=c1oc(Cl)c(Cl)c2ccccc12 is ___
RESULT: class 0

QUERY: Please share the test call associated with O=[N+]([O-])c1ccc(CSc2ncnc3c2ncn3[C@@H]2O[C@H](CO)[C@@H](O)[C@H]2O)cc1 .
RESULT: class 0

QUERY: Query: recorded result category for Nc1nc(N)c2nc(CNc3ccc(C(=O)NC(CCC(=O)O)C(=O)O)cc3)cnc2n1 (configuration not stated) in this test
RESULT: class 0

QUERY: // return assay outcome for Nc1ccc(CCNc2ncnc3c2ncn3C2OC(CO)C(O)C2O)cc1 (configuration not stated)
RESULT: class 0

QUERY: Query: recorded result category for O=C(O)c1cc([N+](=O)[O-])ccc1NCCCc1ccccc1 in this test
RESULT: class 0

---

# assayed-system: Retinaldehyde dehydrogenase 3 (Homo sapiens) (UniProt P47895)
# measurement-notes: qHTS for Inhibitors of the Aldehyde Dehydrogenase Family (ALDH1A3) Confirmatory screens (AID 2061311); also: nearly all actives have a fitted effect of over 60% in size
# cond: ALDH inhibition qHTS; series mostly up to 46 µM
Results filed as inconclusive are left out. Active and inactive are the calls of the source. Calls come from the whole dose curve; as a rule, active = well fitted inhibition curve with a large enough effect; inconclusive = small, poorly fitted or top-dose-only effect; inactive = no such curve, though single readings can be large or run the other way.
Can you answer with just one of these options? True = active, False = inactive

>>> discrete_label("O=c1cc(-c2ccccn2)oc2c(Nc3ccccc3)nccc12")
"True"
>>> discrete_label("Cc1ccc(CCNc2ncnc3onc(-c4ccc(Cl)cc4)c23)cc1")
"True"
>>> discrete_label("Clc1cccc(COc2cncc(N3CCNCC3)n2)c1")
"False"
>>> discrete_label("COc1cc(NS(=O)(=O)c2ccc([N+](=O)[O-])cc2)c2ncccc2c1")
"True"
>>> discrete_label("COc1ccc(-c2nc(CNS(=O)(=O)c3ccc(F)cc3)cs2)cc1")
"False"
>>> discrete_label("CC(C)(C)OC(=O)N1CCN(c2cnc(NCc3ccc(-c4ccc(C#N)cc4)o3)cn2)CC1")
"True"
>>> discrete_label("CCOc1ccc(C(=O)Nc2ccc(-c3nc4ccccc4[nH]3)cc2)cc1")
"False"
>>> discrete_label("Clc1ccc2ncc(-c3cccc(NC4CNC4)n3)n2c1")
"False"

QUERY: Hi team, can someone confirm the assay call for Oc1ccc(O)cc1 ?
RESULT: True

QUERY: Record request — test call for Cc1ccc(Nc2nc(C#N)nc(NC3CCCC3)n2)cc1
RESULT: False

QUERY: Call for entry C[C@@H]1CN(Cc2ncccn2)C[C@H]1c1nc2c(cnn2C2CCOCC2)c(=O)[nH]1 :
RESULT: False

---

# assayed-system: Retinaldehyde dehydrogenase 3 (Homo sapiens) (UniProt P47895)
# measurement-notes: qHTS for Inhibitors of the Aldehyde Dehydrogenase Family (ALDH1A3) Confirmatory screens (AID 2061311); also: nearly all actives have a fitted effect of over 60% in size
# cond: ALDH inhibition qHTS; series mostly up to 46 µM
Results filed as inconclusive are left out. Activity calls are given as the source filed them. Calls follow the shape of the dose curve; as a rule, active = well fitted inhibition curve with a large enough effect; inconclusive = small, poorly fitted or top-dose-only effect; inactive = no such curve, though single readings can be large or run the other way.
Output constraint: value belongs to TRUE for active, FALSE for inactive

>>> discrete_label("CS(=O)(=O)c1ccc(C(=O)OCC(=O)N2Cc3ccccc3C2)cc1[N+](=O)[O-]")
"TRUE"
>>> discrete_label("COc1cccc(-c2no[n+]([O-])c2C#N)c1")
"FALSE"
>>> discrete_label("Nc1ncnc2c1ncn2[C@@H]1O[C@H](CN[S+](=O)([O-])NC(=O)c2cccc(-c3noc(-c4ccccc4F)n3)c2)[C@@H](O)[C@H]1O")
"TRUE"
>>> discrete_label("CCNC(=O)OC1CCN(c2nncc3cc(OC)c(OC)cc23)CC1")
"FALSE"
>>> discrete_label("Fc1ccc(CSc2nc3ncc(Br)cc3[nH]2)cc1")
"FALSE"
>>> discrete_label("NC(=O)c1cccc(-c2cc(OC(=O)NC3CCCCC3)ccc2O)c1")
"FALSE"
>>> discrete_label("FC(F)(F)c1cc(N2CCN(C(=S)Nc3cc(Cl)ccn3)CC2)cc(C(F)(F)F)c1")
"FALSE"
>>> discrete_label("NC(=O)[C@H]1CCS[C@@H]2C[C@]3(CCCN3C(=O)Cc3ccc(NC(=O)COc4ccc(Cl)cc4Cl)cc3)C(=O)N12")
"FALSE"

Kindly review the next compound as well.
QUERY: Test call for this compound, please: CCC(=O)c1cc(-c2ccc(Cl)cc2)n(-c2ccc(S(N)(=O)=O)cc2)c1C
RESULT: FALSE

---

# measurement-notes: BET inhibitor-based combinations targeting novel dependencies in MECOM-rearranged (r) AML: UCSD-AML1 cell line (AID 2202235); also: nearly all actives have a fitted effect of over 40% in size; also: potency is read from the fitted curve at half-maximal effect
# cond: UCSD-AML1 AML cells viability, CellTiter-Glo, 48 h; series mostly up to 46 µM
Results filed as inconclusive are left out. Calls of active or inactive are those of the source. Calls follow the shape of the dose curve; as a rule, active = well fitted inhibition curve with a large enough effect; inconclusive = small, poorly fitted or top-dose-only effect; inactive = no such curve, though single readings can be large or run the other way.
quantity-measured: Potency

Consider the worked cases shown below.
>>> result("C=CC(=O)Nc1cccc(Nc2nc(Nc3ccc(NC4CN(CCF)C4)cc3OC)ncc2C(F)(F)F)c1")
"9.34 µM (active)"
>>> result("NC1(Cc2ccc(Cl)cc2)CCN(c2ncnc3[nH]ccc23)CC1")
"5.25 µM (active)"
>>> result("CNC(=O)c1ccccc1Nc1nc(Nc2ccc(N3CCOCC3)cc2OC)ncc1Cl")
"2.35 µM (active)"
>>> result("C[C@]12CC[C@@H]3c4ccc(O)cc4CC[C@H]3[C@@H]1CC[C@@H]2O")
"14.8 µM (active)"
>>> result("O=NN(CCCl)C(=O)NCCCl")
"inactive"

QUERY: Consider the compound shown here: COc1cc(Nc2ncc3c(n2)-c2ccc(Cl)cc2C(c2c(F)cccc2OC)=NC3)ccc1C(=O)O What is its recorded Potency?
RESULT: 0.059 µM (active)

QUERY: Using the record for CCN1CCN(Cc2ccc(NC(=O)c3ccc(C)c(NC(=O)c4cncc(-c5cccs5)c4)c3)cc2C(F)(F)F)CC1 , report its Potency.
RESULT: 1.05 µM (active)
